target: 11β-HSD1 (Homo sapiens); assay: Biological Test Example 4: microsomal 11β-HSD1 in the presence of 50% human plasma
Sequence (P28845 whole entry): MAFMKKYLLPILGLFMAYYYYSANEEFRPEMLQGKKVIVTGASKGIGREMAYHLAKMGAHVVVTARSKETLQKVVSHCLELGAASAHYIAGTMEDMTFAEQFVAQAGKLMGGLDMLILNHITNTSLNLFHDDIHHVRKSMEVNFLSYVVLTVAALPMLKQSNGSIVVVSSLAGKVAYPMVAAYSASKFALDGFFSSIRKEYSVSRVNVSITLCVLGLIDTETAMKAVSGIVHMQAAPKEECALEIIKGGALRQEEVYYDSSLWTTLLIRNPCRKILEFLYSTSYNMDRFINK
Classes by IC50: class A (below 6 nM), class B (6 nM to below 10 nM), class C (10 nM or more)

Reference set (10 entries):
> print(dat)
                                    molecule             study.target  label.class
 1  Cc1cc(-c2ccc([C@H](C)N3CC[C@](CC(C)(C)O)(c4ccc(F)cc4)OC3=O)cc2)cc[n+]1[O-] [EXAMPLE 124]  11β-HSD1 (Homo sapiens)      class C
 2  COc1ccc(-c2ccc([C@H](C)N3CC[C@](CCC(N)=O)(c4ccc(F)cc4)OC3=O)cc2)cn1 [EXAMPLE 66]  11β-HSD1 (Homo sapiens)      class B
 3  Cc1cc(-c2ccc([C@H](C)N3CC[C@](CC(C)(C)O)(c4ccccc4)OC3=O)cc2)cc(C)[n+]1[O-] [EXAMPLE 121]  11β-HSD1 (Homo sapiens)      class B
 4  CC(=O)N(C)CCC[C@]1(c2ccccc2)CCN([C@@H](C)c2ccc(-c3ccnc(C)c3)cc2)C(=O)O1 [EXAMPLE 102]  11β-HSD1 (Homo sapiens)      class C
 5  C[C@@H](c1ccc(-c2ccc(OCCF)nc2)cc1)N1CC[C@](CC(C)(C)O)(c2ccccc2)OC1=O [EXAMPLE 200]  11β-HSD1 (Homo sapiens)      class C
 6  COc1ccc(-c2ccc([C@H](C)N3CC[C@](CCCNS(C)(=O)=O)(c4ccc(F)cc4)OC3=O)cc2)cn1 [EXAMPLE 67]  11β-HSD1 (Homo sapiens)      class B
 7  C[C@@H](c1ccc(-c2ccc(C(C)(C)C)nn2)cc1)N1CC[C@](CC(C)(C)O)(c2ccccc2)OC1=O [EXAMPLE 6]  11β-HSD1 (Homo sapiens)      class B
 8  C[C@@H](c1ccc(-c2cnc(-n3ccnc3)nc2)cc1)N1CC[C@](CC(C)(C)O)(c2ccccc2)OC1=O [EXAMPLE 14]  11β-HSD1 (Homo sapiens)      class A
 9  C[C@@H](c1ccc(-c2ccc(C#N)cn2)cc1)N1CC[C@](CC(C)(C)O)(c2ccc(F)cc2)OC1=O [EXAMPLE 111]  11β-HSD1 (Homo sapiens)      class B
10  C[C@@H](c1ccc(-c2ncc(C(=O)NC(C)(C)C)s2)cc1)N1CC[C@](CC(C)(C)C#N)(c2ccccc2)OC1=O [EXAMPLE 24]  11β-HSD1 (Homo sapiens)      class A

stdin: Could you tell me which band Cc1cc(-c2ccc([C@H](C)N3CC[C@](CC(C)(C)C#N)(c4ccc(F)cc4)OC3=O)cc2)ccn1 [EXAMPLE 116] belongs to?
stdout: class A

stdin: Try C[C@@H](c1ccc(-c2ccncc2)cc1)N1CC[C@](CCC(N)=O)(c2ccc(F)cc2)OC1=O [EXAMPLE 74] next.
stdout: class A

stdin: Try C[C@@H](c1ccc(-c2ccc(C(C)(C)O)nn2)cc1)N1CC[C@](CC(C)(C)O)(c2ccccc2)OC1=O [EXAMPLE 7] next.
stdout: class A

stdin: Try CCOc1ncc(-c2ccc([C@H](C)N3CC[C@](CC(C)(C)O)(c4ccccc4)OC3=O)cc2)cc1C [EXAMPLE 160] next.
stdout: class C

stdin: Try C[C@@H](c1ccc(-c2cc(C#N)ccn2)cc1)N1CC[C@](CC(C)(C)O)(c2ccccc2)OC1=O [EXAMPLE 164] next.
stdout: class C

stdin: Try Cc1cc(-c2ccc([C@H](C)N3CC[C@](CC(C)(C)O)(c4ccc(F)cc4)OC3=O)cc2)ccn1 [EXAMPLE 76] next.
stdout: class B
